Measured Average IL-2 % inhibition values are reported for all entries that follow.
- Tested on: IL-2
- test: IL-2 production of TCR/CD28 activated Jurkat T-cells after viral shDNA transduction
- Type: cell-based
- applied_conditions: pLKO.1 shDNA, puromycin selected, TCR/CD28 activated 6 days post transduction, IL-2 normalized to viable cells
Answer in %, number only, no unit symbol.

molecule	endpoint	endpoint_unit	number
cMAC BL7: shDNA construct in pLKO.1 lentiviral vector, target sequence ccgggtttccctattccaa (SEQ ID NO: 120) (nucleic acid) sense: CCGGCCGGGTTTCCCTATTCCAATTCAAGAGATTGGAATAGGGAAACCCGGTTTTT antisense: AATTAAAAACCGGGTTTCCCTATTCCAATCTCTTGAATTGGAATAGGGAAACCCGG	Average IL-2 % inhibition	%	40.8

Shifting focus to the molecule that follows.
GET /value?item= cMAC BL2: shDNA construct in pLKO.1 lentiviral vector, target sequence gcctttgttagatctatca (SEQ ID NO: 105) (nucleic acid) sense: CCGGGCCTTTGTTAGATCTATCATTCAAGAGATGATAGATCTAACAAAGGCTTTTT antisense: AATTAAAAAGCCTTTGTTAGATCTATCATCTCTTGAATGATAGATCTAACAAAGGC &field=Average IL-2 % inhibition returns 75.5
